Provenance of the data: PubChem BioAssay AID330

# System: P388 leukemia ip, CD2F1 mice, survival T/C
# protocol_summary: NCI In Vivo Anticancer Drug Screen. Data for tumor model P388 Leukemia (intraperitoneal) in CD2F1 (CDF1) mice
# protocol_conditions: endpoint: median survival time; dose: 50.0 mg/kg/injection; schedule: Q01DX005 (ip); vehicle: saline + Tween-80 + alcohol; higher = longer survival
Toxic doses and inconclusive results are not listed.
Each record here notes measured T/C.

{"columns": ["molecule", "T/C"],
 "data": [
  ["CCc1cc2c(c3c1C(=O)CC3)C(C)(C)CCC2", "106 % of control"]
]}

Q: Using the record for NCCCCC(C(=O)NC(Cc1ccc(O)cc1)C(=O)NN)N(C(=O)OCc1ccccc1)C(=O)OCc1ccccc1 (centres undefined) , report its T/C.
A: 107 % of control

Q: Likewise for O=C(OCCN1C(=O)C2C3C=CC(C3)C2C1=O)C1C2C=CC(C2)C1C(=O)OCCN1C(=O)C2C3C=CC(C3)C2C1=O (centres undefined) ?
A: 100 % of control

Q: Likewise for CCCCCCC(=O)/C=C/c1cccc(OCc2cccc(Cl)c2)c1 ?
A: 96 % of control

###

# Tested on: P388 leukemia ip, CD2F1 mice, survival T/C
# protocol_summary: NCI In Vivo Anticancer Drug Screen. Data for tumor model P388 Leukemia (intraperitoneal) in CD2F1 (CDF1) mice
# protocol_conditions: endpoint: median survival time; dose: 50.0 mg/kg/injection; schedule: Q01DX009 (ip); vehicle: saline
Inconclusive results and toxic doses are left out. How the source made its calls: active means survival T/C of 150% or more; inactive means T/C below 125% in these data.
Please state which outcome applies, choosing from y for active, n for inactive

{"columns": ["compound", "class_assignment"],
 "data": [
  ["CC(=O)SC12CCCN1C(=O)C1(SC(C)=O)CCCN1C2=O (configuration not stated)", "n"],
  ["O=C(NCc1ccccn1)c1ccccc1", "n"],
  ["COc1cc(N(CCCl)CCCl)c(OC)cc1C=Nc1cccc(Br)c1", "y"]
]}

Q: Field: outcome | Entry: COC(C(N)=O)c1ccccc1 (configuration not stated)
A: n

Q: Likewise for CCON(C=Nc1ccc(Cl)c(Cl)c1)c1ccc(Cl)c(Cl)c1 ?
A: n

Q: Likewise for CCC(C(=O)O)C(=O)O.[NH-]CC1CCCC[N-]1.[Pt+2] ?
A: y

Q: Likewise for Oc1cccc2c1[O][Sb][O]2 ?
A: y

Q: Likewise for CCN(CC)CCCNc1cccc2c(C)cc(OC)nc12 ?
A: n

Q: Likewise for CC1=NN(c2cc(S(=O)(=O)O)ccc2Cl)C(=O)C1N=Nc1ccccc1 (configuration not stated) ?
A: n

Q: Likewise for O=C(CCl)N/N=C/c1ccccc1 ?
A: n

Q: Likewise for CCOC1CN(C(=O)ON)N1C(=O)ON (configuration not stated) ?
A: n

Q: Likewise for CC1=C(C)OP(=O)(O)O1 ?
A: n

Q: Likewise for Nc1ccc2c(c1)CN1C(=O)c3ccccc3C1=N2 ?
A: y

Q: Likewise for CCC[CH2][Sn]([CH2]CCC)([CH2]CCC)[CH2]CC[N+](C)(CCO)CCO.CS(=O)(=O)[O-] ?
A: n

Q: Likewise for CCC[CH2][Sn]([CH2]CCC)([CH2]CCC)[CH2]CCNCCCN(C)C ?
A: n

###

Each record here notes measured T/C.
# Test system: P388 leukemia ip, CD2F1 mice, survival T/C
# protocol_summary: NCI In Vivo Anticancer Drug Screen. Data for tumor model P388 Leukemia (intraperitoneal) in CD2F1 (CDF1) mice
# protocol_conditions: endpoint: median survival time; dose: 400.0 mg/kg/injection; schedule: Q01DX001 (ip); vehicle: Klucel (hydroxypropylcellulose) (HPC); higher = longer survival
Inconclusive results and toxic doses are left out.

{"columns": ["compound", "target", "T/C"],
 "data": [
  ["Ic1cc2c(cc1C1CO1)OCO2 (configuration not stated)", "P388 leukemia ip, CD2F1 mice, survival T/C", "96 % of control"]
]}

Q: Using the record for Cc1nnn(NC(=O)Cc2ccccc2)c1C , report its T/C.
A: 99 % of control

Q: Likewise for C1CCC2(CC1)OCCCO2 ?
A: 107 % of control

Q: Likewise for CC(O)(c1ccc(Br)cc1)C1CC1 (configuration not stated) ?
A: 96 % of control

Q: Likewise for COc1ccc(CC2C=CCN2C(=O)OCc2ccccc2)cc1 (configuration not stated) ?
A: 99 % of control

Q: Likewise for Cc1ccc(C2(O)CC3CCC(C2)N3C)cc1 (configuration not stated) ?
A: 101 % of control

Q: Likewise for CN1C(=O)/C(=c2\sc3nc4ccccc4n3c2=O)c2cc(Br)ccc21 ?
A: 101 % of control
